Origin of values: the supplement of paper PMC10724198

// reported protein stability index for each item listed
# Tested on: Saccharomyces cerevisiae;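 further: PSI is a weighted mean of sequencing reads over stability bins, variants kept only with over 10 reads, mCherry proximal and sfGFP distal, peptide attached via GGGS linker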
# test_details: protein stability index of tFT-peptide fusion (C-terminal peptide) (PSI (0-1 scale)); higher = more stable (slower turnover)
# test_settings: genetic background: wild type; temperature: 30 C
I only need the number, thanks.

Solved cases (5 shown):
SRCGSFRICFGT = 0.638
LVFGVSRRLGRG = 0.65
PPPPPPPNSHPH = 0.678
LLLVLGLSLVGL = 0.564
PHPPPLTQTPHD = 0.704

Name the recorded protein stability index for "PPLDPPPAPPPP" .
0.693

Item under review: "QGRLRLSLLVSG" . Reported protein stability index?
0.526

What does the data say about its protein stability index? Entry: "PPPTSSALPALV"
0.736

Consider the sequence "PRPPAGSFPSSL" and give its measured protein stability index.
0.7

Data request, read-out protein stability index, for "RSDPLPKTSAAY"
0.644
